Exercise: for every item that follows, state its recorded pIC50.
Tested on: LmajEFGSK-3 (LmajGSK-3 short Y102F and D105E double mutant) (Leishmania major, UniProt Q4QE15, D105E/Y102F)
Measurement notes: biochemical
Give only the number. pIC50 is defined as minus log10 of concentration in molar units.

Lab note: measured pIC50 of NC1=NC(=O)/C(=C2\CCNC(=O)c3[nH]c(Br)cc32)N1 [Hymeni-aldisine, Stylissa dami-cornis, Hymenialdisine] was 5.03

Consider COc1ccc2c(c1)/C(=C/c1cnc[nH]1)C(=O)N2 [SU9516] . Its measured pIC50 is 5.89

###

Value kind: pIC50
Lab note — pIC50 values are minus log10 of concentrations in M.

Measured pIC50 for this entry NC1=NC(=O)/C(=C2\CCNC(=O)c3[nH]c(Br)cc32)N1 [Hymeni-aldisine, Stylissa dami-cornis, Hymenialdisine] on UniProt Q4QE15: 4.88

Known value: UniProt Q4QE15 pIC50 of the molecule COc1ccc2c(c1)/C(=C/c1cnc[nH]1)C(=O)N2 [SU9516] equals 5.52

###

Please provide measured pIC50 for the entries that follow.
Tested on: LmajEGSK-3 (LmajGSK-3 short D105E mutant) (Leishmania major, UniProt Q4QE15, D105E)
Measurement notes: biochemical
Value format note: pIC50 is -log10 of concentration (mol/L); just state the number.

Looking up COc1ccc2c(c1)/C(=C/c1cnc[nH]1)C(=O)N2 [SU9516] , I found its pIC50 recorded as 5.50

Value of pIC50 reported for the molecule NC1=NC(=O)/C(=C2\CCNC(=O)c3[nH]c(Br)cc32)N1 [Hymeni-aldisine, Stylissa dami-cornis, Hymenialdisine] is 4.98

###

Would you mind telling me the reported IC50 of each entry?
Tested on: LmajFGSK-3 (LmajGSK-3 short Y102F mutant) (Leishmania major, UniProt Q4QE15, Y102F)
Measurement notes: biochemical
Type: biochemical, L. major
Experimental context: read-out: Mean IC50 (SD), LmajFGSK-3; Y102F mutant; 8.2 nM enzyme, 3.2 μM BioGSP-2, 2 μM ATP, 90 minutes at 30°C

Lab note: measured IC50 of "Cn1cc(C2=C(c3cn(CCCN)c4ccccc34)C(=O)NC2=O)c2ccccc21" was 1080 nM

Reported IC50 ( "N#CCCc1ccc2c(c1)-c1[nH]c3ccc([N+](=O)[O-])cc3c1CC(=O)N2" ) = 310 nM

// field: IC50; key: "O=C1Nc2ccc(S(=O)(=O)O)cc2C1=C1Nc2ccccc2C1=NO" ; value = 930 nM

The measured IC50 associated with "O=C1Nc2ccccc2/C1=C/c1cnc[nH]1" reads 8470 nM

Notebook: "O=C1Nc2ccc3ncsc3c2/C1=C/Nc1ccc(S(=O)(=O)Nc2ccccn2)cc1" , IC50 read as 90 nM

###

Tested on: LmajFGSK-3 (LmajGSK-3 short Y102F mutant) (Leishmania major, UniProt Q4QE15, Y102F)
Measurement notes: biochemical
Assay type: biochemical, L. major
Value kind: pIC50
Notebook: values listed as pIC50 are -log10 of the concentration (mol/L).

pIC50 reading for "COc1ccc2c(c1)/C(=C/c1cnc[nH]1)C(=O)N2" : 5.85

# compound "NC1=NC(=O)/C(=C2\CCNC(=O)c3[nH]c(Br)cc32)N1" ; its pIC50 = 4.79
